ASSAY_SYSTEM: CYP3A4 (Homo sapiens, UniProt P08684)
Sequence (P08684 whole entry): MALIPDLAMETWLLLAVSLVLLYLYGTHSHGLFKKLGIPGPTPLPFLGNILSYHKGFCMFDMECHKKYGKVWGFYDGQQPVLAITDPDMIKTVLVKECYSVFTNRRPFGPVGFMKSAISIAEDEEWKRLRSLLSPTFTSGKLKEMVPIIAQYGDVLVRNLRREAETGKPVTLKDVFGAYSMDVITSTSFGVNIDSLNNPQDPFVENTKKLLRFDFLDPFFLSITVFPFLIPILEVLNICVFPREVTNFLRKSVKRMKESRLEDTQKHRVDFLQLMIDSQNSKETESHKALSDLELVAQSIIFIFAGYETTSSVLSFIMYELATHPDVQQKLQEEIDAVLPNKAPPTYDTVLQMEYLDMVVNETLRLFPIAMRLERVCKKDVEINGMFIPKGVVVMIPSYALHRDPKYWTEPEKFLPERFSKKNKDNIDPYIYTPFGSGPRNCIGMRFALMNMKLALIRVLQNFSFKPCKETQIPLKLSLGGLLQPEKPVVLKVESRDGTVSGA
ASSAY_EXPLANATION: Inhibition of CYP3A4 (unknown origin) at 10 uM relative to control
Assay type: ADME
In this section, each of the compounds is paired with its reported inhibition at 10 µM.

SMILES_STRING | inhibition at 10 µM / %
COc1cc2ccccc2cc1C(=O)NC(=S)Nc1ccc(-c2nnco2)cc1 | 16
COc1cc2ccccc2cc1C(=O)NC(=S)Nc1ccc(-c2ncc[nH]2)cc1 | 28

----------
ASSAY_EXPLANATION: Half life in CD1 mouse at 5 mg/kg, ip
Type: ADME, organism-based
MEASUREMENT_CONDITIONS: in vivo
In this section, each of the compounds is paired with its reported half-life.

SMILES_STRING | half-life
COc1cc2ccccc2cc1C(=O)NC(=S)Nc1ccc(-c2ncc[nH]2)cc1 | 2.49 h
COc1cc2ccccc2cc1C(=O)NC(=S)Nc1ccc(-c2nnco2)cc1 | 3.51 h
